Listed below: GI50 values for each entry.
# Test system: NCI-H1048 cells
# TEST SUMMARY: MTT proliferation assay, NCI-H1048
# Format: cell-based
# STATED CONDITIONS: 5 days compound exposure, 1:3 serial dilution starting at 10 μM
*1 amine or outer side, *2 acyl side, *3 side chain or, on linkers, in order; H or OH if unused. Where a SMILES comes first, the peptide text is derived from it. Bridges are numbered along the chain shown (N, C = ends). [ ]: non-standard residue; d: D form. The star is where a group is joined. X11 = CN1CCN(c2ccc(-c3ccc(Cl)cc3C[C@@H](C(=O)[*:2])N(C)[*:1])cc2)CC1; NMehhhLys(Me) = CN([C@@H](CCCCCCCN(C)[*:3])C(=O)[*:2])[*:1]; X131 = CN([C@@H](Cc1cc(F)cnc1-c1cnn(C)c1)C(=O)[*:2])[*:1]; cBuCO(3,3-F2-1-CF3) = O=C(C1(C(F)(F)F)CC(F)(F)C1)*; Pro(trans-4-F) = O=C(O)[C@@H]1C[C@@H](F)CN1; Gly(cPr) = N[C@H](C(=O)O)C1CC1
Please reply with the bare figure in nM and do not write the unit itself.

Study these solved cases before continuing.
{"COMPOUND": "CC(C)C[C@@H]1NC(=O)[C@@H](N(C)C(=O)[C@@H](NC(=O)[C@@H]2C[C@@H](F)CN2C(=O)C2(C(F)(F)F)CC(F)(F)C2)C2CC2)CCCC=CCCNC(=O)[C@H](Cc2cc(Cl)ccc2-c2cnn(C)c2)N(C)C1=O [Example 285]", "ASSAY ENDPOINT": "GI50", "VAL": 50}
{"COMPOUND": "CC(C)C[C@@H]1NC(=O)[C@@H](N(C)C(=O)[C@@H](NC(=O)[C@@H]2C[C@@H](F)CN2C(=O)C2(C(F)(F)F)CC(F)(F)C2)C2CC2)CCCCCCCN(C)C(=O)[C@H](Cc2cc(Cl)ccc2-c2ccc(N3CCN(C)CC3)cc2)N(C)C1=O [Example 336] ({cBuCO(3,3-F2-1-CF3)}-[Pro(trans-4-F)][Gly(cPr)][NMehhhLys(Me)]L[X11]; lactam 3-C)", "ASSAY ENDPOINT": "GI50", "VAL": 10}

Check the records and state GI50 for CC(C)C[C@@H]1NC(=O)[C@@H](N(C)C(=O)[C@@H](NC(=O)[C@@H]2C[C@@H](F)CN2C(=O)C2(C(F)(F)F)CC(F)(F)C2)C2CC2)CCCCCCCN(C)C(=O)[C@H](Cc2cc(F)cnc2-c2cnn(C)c2)N(C)C1=O [Example 244] ({cBuCO(3,3-F2-1-CF3)}-[Pro(trans-4-F)][Gly(cPr)][NMehhhLys(Me)]L[X131]; lactam 3-C)
100

###

# Tested on: NCI-H1048 cells
# TEST SUMMARY: MTT proliferation assay, NCI-H1048;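 further: Dose-response in 96-well plates over 8 or 10 concentration points, with exposure spanning 3-4 cell doublings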
# Type: cell-based
# STATED CONDITIONS: 5 days compound exposure, 1:3 serial dilution starting at 10 μM
*1 amine or outer side, *2 acyl side, *3 side chain or, on linkers, in order; H or OH if unused. Where a SMILES comes first, the peptide text is derived from it. Bridges are numbered along the chain shown (N, C = ends). [ ]: non-standard residue; d: D form. The star is where a group is joined. X53 = CN1[C@@H]2CC[C@H]1CN(c1ccc(-c3ccc(Cl)cc3C[C@@H](C(=O)[*:2])N(C)[*:1])cc1)C2; X78 = CN1CCN(C2(c3ccc(-c4ccc(Cl)cc4C[C@@H](C(=O)[*:2])N(C)[*:1])cc3)CC2)CC1; X198 = COC[C@H]1COCCN1c1ccc(-c2ccc(Cl)cc2C[C@@H](C(=O)[*:2])N(C)[*:1])cc1; X185 = CN([C@@H](Cc1cc(Cl)ccc1-c1ccc(N2CCOC(C)(C)C2)cc1)C(=O)[*:2])[*:1]; X32 = CN([C@@H](Cc1cc(Cl)ccc1-c1ccc(N2CCOCC2=O)cc1)C(=O)[*:2])[*:1]; NMehhhLys(Me) = CN([C@@H](CCCCCCCN(C)[*:3])C(=O)[*:2])[*:1]; X117 = Cc1cc(-c2ccc(F)cc2C[C@@H](C(=O)[*:2])N(C)[*:1])cnn1; NMe(hhhLys) = CN([C@@H](CCCCCCCN[*:3])C(=O)[*:2])[*:1]; cBuCO(3,3-F2-1-CF3) = O=C(C1(C(F)(F)F)CC(F)(F)C1)*; Pro(trans-4-F) = O=C(O)[C@@H]1C[C@@H](F)CN1; Gly(cPr) = N[C@H](C(=O)O)C1CC1
ASSAY ENDPOINT: GI50
Output should be the measured figure followed by the unit it is expressed in.

{"MOLECULE": "COC[C@H]1COCCN1c1ccc(-c2ccc(Cl)cc2C[C@H]2C(=O)N(C)CCCCCCC[C@H](N(C)C(=O)[C@@H](NC(=O)[C@@H]3C[C@@H](F)CN3C(=O)C3(C(F)(F)F)CC(F)(F)C3)C3CC3)C(=O)N[C@@H](CC(C)C)C(=O)N2C)cc1 [Example 373] ({cBuCO(3,3-F2-1-CF3)}-[Pro(trans-4-F)][Gly(cPr)][NMehhhLys(Me)]L[X198]; lactam 3-C)", "ASSAY ENDPOINT": "GI50", "VAL": "10 nM"}
{"MOLECULE": "CC(C)C[C@@H]1NC(=O)[C@@H](N(C)C(=O)[C@@H](NC(=O)[C@@H]2C[C@@H](F)CN2C(=O)C2(C(F)(F)F)CC(F)(F)C2)C2CC2)CCCCCCCN(C)C(=O)[C@H](Cc2cc(Cl)ccc2-c2ccc(N3CCOCC3=O)cc2)N(C)C1=O [Example 408] ({cBuCO(3,3-F2-1-CF3)}-[Pro(trans-4-F)][Gly(cPr)][NMehhhLys(Me)]L[X32]; lactam 3-C)", "ASSAY ENDPOINT": "GI50", "VAL": "10 nM"}
{"MOLECULE": "CC(C)C[C@@H]1NC(=O)[C@@H](N(C)C(=O)[C@@H](NC(=O)[C@@H]2C[C@@H](F)CN2C(=O)C2(C(F)(F)F)CC(F)(F)C2)C2CC2)CCCCCCCN(C)C(=O)[C@H](Cc2cc(Cl)ccc2-c2ccc(N3CCOC(C)(C)C3)cc2)N(C)C1=O [Example 366] ({cBuCO(3,3-F2-1-CF3)}-[Pro(trans-4-F)][Gly(cPr)][NMehhhLys(Me)]L[X185]; lactam 3-C)", "ASSAY ENDPOINT": "GI50", "VAL": "20 nM"}
{"MOLECULE": "Cc1cc(-c2ccc(F)cc2C[C@H]2C(=O)NCCCCCCC[C@H](N(C)C(=O)[C@@H](NC(=O)[C@@H]3C[C@@H](F)CN3C(=O)C3(C(F)(F)F)CC(F)(F)C3)C3CC3)C(=O)N[C@@H](CC(C)C)C(=O)N2C)cnn1 [Example 294] ({cBuCO(3,3-F2-1-CF3)}-[Pro(trans-4-F)][Gly(cPr)][NMe(hhhLys)]L[X117]; lactam 3-C)", "ASSAY ENDPOINT": "GI50", "VAL": "80 nM"}

Tell us which GI50 value is on record for CC(C)C[C@@H]1NC(=O)[C@@H](N(C)C(=O)[C@@H](NC(=O)[C@@H]2C[C@@H](F)CN2C(=O)C2(C(F)(F)F)CC(F)(F)C2)C2CC2)CCCCCCCN(C)C(=O)[C@H](Cc2cc(Cl)ccc2-c2ccc(C3(N4CCN(C)CC4)CC3)cc2)N(C)C1=O [Example 381] ({cBuCO(3,3-F2-1-CF3)}-[Pro(trans-4-F)][Gly(cPr)][NMehhhLys(Me)]L[X78]; lactam 3-C)
20 nM

Determine from records and report GI50 for CC(C)C[C@@H]1NC(=O)[C@@H](N(C)C(=O)[C@@H](NC(=O)[C@@H]2C[C@@H](F)CN2C(=O)C2(C(F)(F)F)CC(F)(F)C2)C2CC2)CCCCCCCN(C)C(=O)[C@H](Cc2cc(Cl)ccc2-c2ccc(N3C[C@H]4CC[C@@H](C3)N4C)cc2)N(C)C1=O [Example 362] ({cBuCO(3,3-F2-1-CF3)}-[Pro(trans-4-F)][Gly(cPr)][NMehhhLys(Me)]L[X53]; lactam 3-C)
10 nM

Reference for the values: patent US20240408169A1
